This collection of values is drawn from paper PMC11129182.

Field: inhibition at 1.25 µM. Provide a value for each of the compounds that follow.
# TARGET DESC: PARK7 (Homo sapiens)
# Sequence (Q99497 1-189): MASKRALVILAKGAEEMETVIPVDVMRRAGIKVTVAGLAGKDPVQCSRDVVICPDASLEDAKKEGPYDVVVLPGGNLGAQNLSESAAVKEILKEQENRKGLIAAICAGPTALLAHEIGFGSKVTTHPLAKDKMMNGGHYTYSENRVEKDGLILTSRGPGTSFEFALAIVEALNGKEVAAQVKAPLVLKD
# TEST PROTOCOL: High-throughput screen of the crude compound library, PARK7 fluorescence polarization (FP) assay with FP reagent JYQ-107
# Format: biochemical
# PROTOCOL CONDITIONS: 1.25 µM, crude compound library; read-out: HTS FP assay %Inhibition (1.25 µM)
Numbers only, in %.

The examples below pair each entry with its known result.
| RECORD SMILES | TARGET DESC | inhibition at 1.25 µM [%] |
| --- | --- | --- |
| N#CN1CC[C@@H](C(=O)Nc2nc3c(s2)CN(C(=O)c2cncc(N4CCCC4)n2)CC3)C1 | PARK7 (Homo sapiens) | 81.9 |
| N#CN1CC[C@@H](C(=O)Nc2nc3c(s2)CN(C(=O)c2cc(-c4ccncc4)on2)CC3)C1 | PARK7 (Homo sapiens) | 63.9 |
| Cc1cc(C)n(-c2ccc(Cl)c(C(=O)N3CCc4nc(NC(=O)[C@@H]5CCN(C#N)C5)sc4C3)n2)n1 | PARK7 (Homo sapiens) | 68.4 |

Exam item: Dear colleague, please send me the reported inhibition at 1.25 µM for "N#CN1CC[C@@H](C(=O)Nc2nc3c(s2)CN(C(=O)c2cc(-n4ccnc4)ccn2)CC3)C1" when you can.
Marked response: 90.7

---

Field: inhibition at 1.25 µM. Provide a value for each of the compounds that follow.
# TARGET DESC: UniProtKB Q99497
# Sequence (Q99497 1-189): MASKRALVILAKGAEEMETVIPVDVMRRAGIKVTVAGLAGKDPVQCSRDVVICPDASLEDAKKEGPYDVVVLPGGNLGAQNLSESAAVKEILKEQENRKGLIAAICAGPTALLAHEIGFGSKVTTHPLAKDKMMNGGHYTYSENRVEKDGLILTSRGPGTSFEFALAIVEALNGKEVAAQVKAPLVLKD
# TEST PROTOCOL: High-throughput screen of the crude compound library, PARK7 fluorescence polarization (FP) assay with FP reagent JYQ-107
# Type: biochemical
# PROTOCOL CONDITIONS: 1.25 µM, crude compound library, FP reagent JYQ-107; read-out: HTS FP assay %Inhibition (1.25 µM)
Numbers only, in %.

Dear colleague, could you send me inhibition at 1.25 µM for each of the items below? Thanks.
1. N#CN1CC[C@@H](C(=O)Nc2nc3c(s2)CN(C(=O)c2cnccn2)CC3)C1 [compound 402]
2. N#CN1CC[C@@H](C(=O)Nc2nc3c(s2)CN(C(=O)c2cccc(Oc4nccs4)c2)CC3)C1 [compound 351]
3. N#CN1CC[C@@H](C(=O)Nc2nc3c(s2)CN(C(=O)c2ccc(NNC(=O)OCC4c5ccccc5-c5ccccc54)cc2)CC3)C1 [compound 422]
4. N#CN1CC[C@@H](C(=O)Nc2nc3c(s2)CN(C(=O)CCc2ccccc2)CC3)C1 [compound 459]

Marked response:
85.1
88.9
78.9
72.7

Dear colleague, could you send me inhibition at 1.25 µM for each of the items below? Thanks.
1. N#CN1CC[C@@H](C(=O)Nc2nc3c(s2)CN(C(=O)Cc2ccc(OCc4ccccn4)cc2)CC3)C1 [compound 353]
2. Cc1n[nH]c(C)c1Cc1ccc(C(=O)N2CCc3nc(NC(=O)[C@@H]4CCN(C#N)C4)sc3C2)o1 [compound 363]
3. N#CN1CC[C@@H](C(=O)Nc2nc3c(s2)CN(C(=O)c2cnc(-c4cccnc4)s2)CC3)C1 [compound 368]

Marked response:
1: 73.2; 2: 78.9; 3: 69.2
